Molecular target: JNK1 (Homo sapiens)
Sequence (P45983 1-384 isoform P45983-3): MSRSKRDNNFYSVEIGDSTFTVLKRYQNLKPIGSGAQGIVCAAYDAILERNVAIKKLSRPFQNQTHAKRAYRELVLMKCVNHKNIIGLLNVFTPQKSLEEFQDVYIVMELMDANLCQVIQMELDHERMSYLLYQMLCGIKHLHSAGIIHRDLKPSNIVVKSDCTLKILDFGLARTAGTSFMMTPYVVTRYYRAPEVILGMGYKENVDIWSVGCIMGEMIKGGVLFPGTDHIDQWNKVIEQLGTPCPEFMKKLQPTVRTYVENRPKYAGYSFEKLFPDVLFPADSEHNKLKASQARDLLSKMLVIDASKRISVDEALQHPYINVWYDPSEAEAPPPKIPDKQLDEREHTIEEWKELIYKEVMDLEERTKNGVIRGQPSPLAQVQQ
recorded-endpoint: IC50 (µM)
Record the value in µM, omitting the unit from your answer.

Give JNK1 (Homo sapiens) IC50 for CC(=O)Nc1cccc(C(=O)Nc2ccc(Nc3nccc(-c4cccnc4)n3)c(C)c2)c1 [IN-8a]
5.33
